Taken from PubChem BioAssay (NCI).

Assay: NCI Yeast Anticancer Drug Screen. Data for the sgs1 mgt1 strain (AID 161);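 further: 0% = growth of cultures given vehicle only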
Conditions: S. cerevisiae sgs1 mgt1 strain, active compounds read high; at 50.0 µM unless noted
About 79,000 compounds went through this panel and 15% of them were active in at least one assay; those are over-represented in the sample as a whole.
Hi there, I'd appreciate the recorded growth inhibition for every entry that follows.
Return type: number; implicit unit %.

Give its growth inhibition value. Item: C=C(C)C(=O)Oc1ccccc1/C=C/C(=O)CCCCCC
-20.4

Query: growth inhibition; subject: O=C(NO)c1ccccc1
11.6

Record request: growth inhibition value, item Nc1c(I)cc(I)c(C(=O)O)c1I
-17

# lookup: growth inhibition of CCOC(=O)C(Cc1ccc(Cl)cc1)(NC(C)=O)C(=O)OCC
-4.25

Given CCOc1ccc(N=Cc2ccc3cc(C)ccc3n2)cc1 , state its recorded growth inhibition.
-2.4

Give its growth inhibition value. Item: CC1=C2CC(C)(C)/C=C\C(=O)/C(C)=C\C3=C[C@H](C)C[C@]3(O2)C1=O
72.8

What value of growth inhibition has been reported for the following compound? Nc1nc(N)c2nc(SC34CC5CC(CC(C5)C3)C4)c(N)nc2n1
-7.1

# growth inhibition lookup, item CCOc1ccccc1NC(=O)C(=O)C(C(=O)c1ccc2ccccc2c1)C1OC(=O)c2ccccc21 (stereo not drawn)
13.6

growth inhibition for Nc1ccccc1C1CCCCC1 ?
52

Requested field: growth inhibition. Item: CC1CC(=O)CC(C)(C)N1 (stereo not drawn)
3.2

State the recorded growth inhibition for this entry: COC(=O)C1=C2C3(O)CC4CC5C3CCC(C)N5C24C2CCCC(OC)C2C1OC(=O)c1ccccc1 (stereo not drawn)
17.9

GET /values?readout=growth inhibition&item= O=C(c1ccccc1)c1ccc(O)cc1
21.4

Which growth inhibition value belongs to SCCNCc1ccccc1 ?
6.9

Using the record for O=C(c1ccccc1)C(c1ccccc1)C(Cl)c1ccccc1 (stereo not drawn) , report its growth inhibition.
31.4

For the compound O=C1/C(=C/c2cccc(Br)c2)Cc2ccccc21 , what growth inhibition is on record?
12.3

Using the record for NN1CCN(CCO)CC1 , report its growth inhibition.
-3.3

# query: growth inhibition of entry S=c1[nH]nc2scnn12
4.25

Recorded growth inhibition of CC(C)(C)OC(=O)COc1ccc(NC(=O)COc2ccc(Cl)c(Cl)c2)cc1 , please.
-10.2

---

Experiment: NCI Yeast Anticancer Drug Screen. Data for the mlh1 rad18 strain (AID 175)
Details: S. cerevisiae mlh1 rad18 strain growth inhibition, active compounds read high; at 50.0 µM unless noted
Description: Growth inhibition of yeast strains with defined genetic alterations is measured as a screen for potential anti-cancer activity. Selected strains with alterations in DNA damage repair or cell cycle control were exposed to compounds and growth inhibition was measured relative to vehicle treated controls. The strain used in this assay is mlh1 rad18
About 79,000 compounds went through this panel and 15% of them were active in at least one assay; those are over-represented in the sample as a whole.
recorded endpoint: growth inhibition (%)
Hi! Could you send only the number? It should be in %, unit omitted.

Entry CCOc1ccc(OCC)cc1 has what growth inhibition?
4.65

What value of measured growth inhibition is listed for CCCCCCCCCCCCCCCCS(=O)(=O)N(/N=c1/sc2ccccc2n1C)C(=O)OCC ?
-27.8

What does the record list as growth inhibition for CC(=C(C#N)C#N)c1csc2ccccc12 ?
21.9

# query: growth inhibition of entry C/C(=N\NC(=S)Nc1nccs1)c1ccccn1
98.4

I'd like to know its growth inhibition. The compound in question is O=C(C1=CCCCC1)c1ccc(-c2ccccc2)cc1
4.65

Which measured growth inhibition value corresponds to O=[N+]([O-])c1nccn1CC1OC(n2ccnc2[N+](=O)[O-])C(O)C(O)C1O (centres undefined) ?
6.25

Entry under review: CC(=O)Oc1c(I)cc(Cc2nc(C)oc2C)cc1I . Reported growth inhibition?
-4.8

Find the recorded growth inhibition belonging to CN1c2ccccc2C2CCCCC21 (centres undefined) and report it.
4.25

Any idea what its growth inhibition is? The compound is O=P(O)(O)c1ccc(-c2ccc(I)cc2)cc1
13.2
